Tested on: ASPC1
Test: CCK8 antiproliferative assay
Assay type: cell-based
Details: Homo sapiens; ASPC1, CCK8, 72 h; read-out: IC50, cell proliferation
Measurement Kind: pIC50
Would you please state pIC50, meaning minus log10 of the concentration in mol/L, as a bare number?

Requested read-out: pIC50. Entry: `[2H][C@@](C)(c1cccc(-c2ncc(OCC3CCN(C)CC3)cn2)c1)n1nc(-c2cccc(C#N)c2)ccc1=O`
5.88

----------
Experiment: Liver microsomal stability assay
Format: in vitro ADME
Conditions: Sprague-Dawley, rat, liver microsomes, pH 7.4; SD rats liver microsome
Measurement Kind: half-life
Please append the unit to your numeric answer.

Report half-life for CN1CCC(COc2cnc(-c3cccc(Cn4nc(-c5cccc(C#N)c5)ccc4=O)c3)nc2)CC1 [Tepotinib, reference compound] please.
18.1 min
